Target: JAK2 (Homo sapiens, UniProt O60674)
Construct: endogenous in cells
Sequence (O60674 whole entry): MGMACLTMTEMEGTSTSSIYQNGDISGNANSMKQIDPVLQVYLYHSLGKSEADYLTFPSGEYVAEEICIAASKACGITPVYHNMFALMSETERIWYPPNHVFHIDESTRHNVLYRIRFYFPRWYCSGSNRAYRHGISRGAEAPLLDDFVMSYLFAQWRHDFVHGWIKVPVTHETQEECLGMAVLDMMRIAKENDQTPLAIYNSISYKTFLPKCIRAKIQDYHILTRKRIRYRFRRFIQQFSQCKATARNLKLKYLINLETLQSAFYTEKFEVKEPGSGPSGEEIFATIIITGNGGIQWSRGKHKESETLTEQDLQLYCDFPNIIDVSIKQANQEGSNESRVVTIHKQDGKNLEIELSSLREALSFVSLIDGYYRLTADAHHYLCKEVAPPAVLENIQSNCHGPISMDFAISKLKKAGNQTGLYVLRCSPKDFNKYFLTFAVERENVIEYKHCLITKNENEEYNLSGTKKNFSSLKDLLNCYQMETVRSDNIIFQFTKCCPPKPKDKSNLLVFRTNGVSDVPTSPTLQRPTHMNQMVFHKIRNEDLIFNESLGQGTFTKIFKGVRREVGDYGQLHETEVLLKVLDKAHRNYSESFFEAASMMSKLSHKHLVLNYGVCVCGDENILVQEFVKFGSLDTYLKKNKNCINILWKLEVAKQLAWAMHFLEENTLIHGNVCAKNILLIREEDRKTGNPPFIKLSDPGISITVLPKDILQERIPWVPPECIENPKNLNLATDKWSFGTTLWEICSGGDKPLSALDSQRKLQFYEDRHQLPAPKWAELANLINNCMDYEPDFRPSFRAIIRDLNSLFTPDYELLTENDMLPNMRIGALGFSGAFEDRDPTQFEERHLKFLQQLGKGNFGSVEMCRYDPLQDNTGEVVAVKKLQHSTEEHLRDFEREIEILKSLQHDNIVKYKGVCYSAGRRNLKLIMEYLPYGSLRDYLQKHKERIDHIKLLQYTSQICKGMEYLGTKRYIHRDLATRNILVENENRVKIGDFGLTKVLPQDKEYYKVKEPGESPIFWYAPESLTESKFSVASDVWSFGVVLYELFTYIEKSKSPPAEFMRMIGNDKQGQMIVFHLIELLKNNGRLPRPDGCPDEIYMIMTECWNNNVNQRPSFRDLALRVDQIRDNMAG
Assay: Kinobeads assay, JAK2
Details: mixed Molt4/Ramos cell lysate, dot blot detection
Method: The compounds of the present invention as described in the previous examples were tested in a Kinobeads™ assay as described for ZAP-70 (WO-A 2007/137867). […] Bound proteins were then eluted and the presence of JAK2 and JAK3 was detected and quantified using specific antibodies in a dot blot procedure and the Odyssey infrared detection system. Dose response curves for individual kinases were generated and IC50 values calculated. […]
metric: IC50

[[record]]
input_smiles = "Cn1cc(Nc2ncc3cnn(Cc4cc(F)ccc4C(N)=O)c3n2)cn1"
result = "< 100 nM"

[[record]]
input_smiles = "Fc1ccccc1Cn1ncc2cnc(Nc3cnn(CCCN4CCC4)c3)nc21"
result = "100 to 1000 nM"

[[record]]
input_smiles = "Cn1cc(Nc2ncc3cnn(Cc4cccc(OCC5CC5)c4)c3n2)cn1"
result = "≥ 10000 nM"

[[record]]
input_smiles = "Cn1cc(Nc2ncc3cnn(Cc4cccc(N5CC[C@@H](O)C5)n4)c3n2)cn1"
result = "≥ 10000 nM"

[[record]]
input_smiles = "Fc1ccccc1Cn1ncc2cnc(Nc3cnn(CCC4CCOCC4)c3)nc21"
result = "1000 to 10000 nM"

[[record]]
input_smiles = "Cn1cc(Nc2ncc3cnn(Cc4cccc(-c5ccnc(N)c5)c4)c3n2)cn1"
result = "≥ 10000 nM"

[[record]]
input_smiles = "CS(=O)(=O)n1cc(Nc2ncc3cnn(Cc4ccccc4F)c3n2)cn1"
result = "≥ 10000 nM"

[[record]]
input_smiles = "Cn1cc(Nc2ncc3cnn(-c4ccccc4)c3n2)cn1"
result = "1000 to 10000 nM"

[[record]]
input_smiles = "Cn1cc(Nc2ncc3cnn(Cc4ccccc4N4CCOCC4)c3n2)cn1"
result = "100 to 1000 nM"

[[record]]
input_smiles = "CN1CCN(CCCn2cc(Nc3ncc4cnn(Cc5ccccc5F)c4n3)cn2)CC1"
result = "≥ 10000 nM"

[[record]]
input_smiles = "Cn1cc(Nc2ncc3cnn(Cc4c(F)c(F)cc(F)c4F)c3n2)cn1"
result = "100 to 1000 nM"

[[record]]
input_smiles = "Cn1cc(Nc2ncc3cnn(-c4cccc(C(=O)N5CCOCC5)c4)c3n2)cn1"
result = "1000 to 10000 nM"


* * *

# pIC50 per entry
Target: JAK3 (Homo sapiens)
Construct: endogenous in cells
Sequence (P52333 whole entry): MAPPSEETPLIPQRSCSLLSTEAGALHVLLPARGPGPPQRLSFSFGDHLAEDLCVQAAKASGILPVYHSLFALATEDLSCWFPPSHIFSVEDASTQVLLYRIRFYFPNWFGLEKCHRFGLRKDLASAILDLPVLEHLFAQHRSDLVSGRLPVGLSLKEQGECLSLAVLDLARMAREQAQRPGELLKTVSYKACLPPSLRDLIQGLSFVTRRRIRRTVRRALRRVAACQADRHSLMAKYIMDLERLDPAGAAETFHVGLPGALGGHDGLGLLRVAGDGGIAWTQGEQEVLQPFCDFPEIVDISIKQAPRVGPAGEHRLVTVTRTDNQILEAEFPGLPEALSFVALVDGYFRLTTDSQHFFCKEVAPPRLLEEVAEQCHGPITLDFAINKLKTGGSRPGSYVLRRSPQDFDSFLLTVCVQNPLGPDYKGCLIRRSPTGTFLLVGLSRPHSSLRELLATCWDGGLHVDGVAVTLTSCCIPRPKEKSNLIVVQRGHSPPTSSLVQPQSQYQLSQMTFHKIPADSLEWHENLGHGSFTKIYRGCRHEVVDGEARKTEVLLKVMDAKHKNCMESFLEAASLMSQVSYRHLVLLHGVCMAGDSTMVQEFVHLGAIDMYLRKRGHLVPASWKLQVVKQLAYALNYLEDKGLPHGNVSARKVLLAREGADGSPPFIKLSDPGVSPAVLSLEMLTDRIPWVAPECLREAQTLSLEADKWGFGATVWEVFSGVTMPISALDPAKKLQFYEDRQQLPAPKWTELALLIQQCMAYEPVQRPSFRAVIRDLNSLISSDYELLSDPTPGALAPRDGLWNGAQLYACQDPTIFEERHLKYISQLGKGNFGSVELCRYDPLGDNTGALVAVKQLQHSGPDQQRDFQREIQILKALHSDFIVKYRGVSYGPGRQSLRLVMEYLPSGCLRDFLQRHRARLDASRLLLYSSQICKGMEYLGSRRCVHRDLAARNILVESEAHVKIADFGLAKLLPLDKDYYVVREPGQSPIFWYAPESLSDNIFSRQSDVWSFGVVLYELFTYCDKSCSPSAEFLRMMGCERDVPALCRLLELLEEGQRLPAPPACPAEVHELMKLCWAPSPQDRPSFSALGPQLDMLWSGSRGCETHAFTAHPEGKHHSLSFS
Test: Kinobeads assay, JAK3
Conditions: mixed Molt4/Ramos cell lysate, dot blot detection
Description: The compounds of the present invention as described in the previous examples were tested in a Kinobeads™ assay as described for ZAP-70 (WO-A 2007/137867). […] Bound proteins were then eluted and the presence of JAK2 and JAK3 was detected and quantified using specific antibodies in a dot blot procedure and the Odyssey infrared detection system. Dose response curves for individual kinases were generated and IC50 values calculated. […]
pIC50: −log10 of the molar value.
metric: pIC50

[[record]]
molecule = "Cn1cc(Nc2ncc3cnn(Cc4c(F)cccc4F)c3n2)cn1 [Example 29]"
result = "> 7.00"

[[record]]
molecule = "Cn1cc(Nc2ncc3cnn(Cc4cc(F)cc(F)c4)c3n2)cn1 [Example 79]"
result = "> 7.00"

[[record]]
molecule = "Cn1cc(Nc2ncc3cnn(Cc4ccccc4F)c3n2)cc1C(=O)NCCN1CCOCC1 [Example 243]"
result = "> 7.00"

[[record]]
molecule = "Cc1nn(CC(F)F)cc1Nc1ncc2cnn(Cc3ccccc3C#N)c2n1 [Example 22]"
result = "> 7.00"

[[record]]
molecule = "CNC(=O)Cn1cc(Nc2ncc3cnn(Cc4ccccc4C#N)c3n2)cn1 [Example 13]"
result = "> 7.00"

[[record]]
molecule = "Cn1cc(Nc2ncc3cnn(Cc4ccccc4C#N)c3n2)cn1 [Example 1]"
result = "> 7.00"

[[record]]
molecule = "Cn1cc(Nc2ncc3cnn(Cc4cccc(C#N)c4F)c3n2)cn1 [Example 107]"
result = "> 7.00"

[[record]]
molecule = "Cn1cc(Nc2ncc3cnn(Cc4c(F)c(F)cc(F)c4F)c3n2)cn1 [Example 163]"
result = "> 7.00"

[[record]]
molecule = "COc1nn(CCO)cc1Nc1ncc2cnn(Cc3cccc(F)c3F)c2n1 [Example 50]"
result = "> 7.00"

[[record]]
molecule = "Cn1cc(Nc2ncc3cnn(Cc4cccc(OC5CCOC5)c4)c3n2)cn1 (stereo not shown) [Example 181]"
result = "> 7.00"

[[record]]
molecule = "Cn1cc(Nc2ncc3cnn(Cc4c(F)cccc4NS(C)(=O)=O)c3n2)cn1 [Example 142]"
result = "> 7.00"

[[record]]
molecule = "Cn1cc(Nc2ncc3cnn(Cc4cc(F)ccc4C(N)=O)c3n2)cn1 [Example 53]"
result = "> 7.00"

[[record]]
molecule = "Cc1nn(C)cc1Nc1ncc2cnn(Cc3ccccc3)c2n1 [Example 110]"
result = "6.00 to 7.00"

[[record]]
molecule = "COc1cccc(Cn2ncc3cnc(Nc4cnn(C)c4)nc32)c1F [Example 93]"
result = "6.00 to 7.00"

[[record]]
molecule = "Fc1c(Cl)cccc1Cn1ncc2cnc(Nc3cnn(CC(F)F)c3)nc21 [Example 156]"
result = "6.00 to 7.00"

[[record]]
molecule = "Cn1cc(Nc2ncc3cnn(-c4ccc(C(=O)NCCO)cc4)c3n2)cn1 [Example 148]"
result = "6.00 to 7.00"

[[record]]
molecule = "Cn1cc(Nc2ncc3cnn(Cc4ccccc4NS(C)(=O)=O)c3n2)cn1 [Example 75]"
result = "> 7.00"

[[record]]
molecule = "Cn1cc(Nc2ncc3cnn(Cc4c(F)ccc(N5CCNCC5)c4F)c3n2)cn1 [Example 301]"
result = "> 7.00"

[[record]]
molecule = "COc1nn(CC(F)(F)F)cc1Nc1ncc2cnn(Cc3ccccc3C#N)c2n1 [Example 38]"
result = "6.00 to 7.00"

[[record]]
molecule = "FC(F)Cn1cc(Nc2ncc3cnn(Cc4ccccc4)c3n2)cn1 [Example 118]"
result = "> 7.00"

[[record]]
molecule = "Cn1cc(Nc2ncc3cnn(-c4ccc(F)cc4)c3n2)cn1 [Example 56]"
result = "6.00 to 7.00"

[[record]]
molecule = "COc1nn(CCO)cc1Nc1ncc2cnn(Cc3ccccc3F)c2n1 [Example 49]"
result = "> 7.00"

